tested on: T-47D breast; assay: NCI-60 one-dose screen, 48 h (100 = growth as untreated, 0 = no growth, -100 = all killed); settings: 10 µM unless noted
The panel holds about 83,000 compounds, 20% with a hit somewhere; the sample as a whole holds those more often.
For each entry below, report its growth value.
Answers are plain numbers, in %.

O=C(CCCCCCNC(=O)C(O)(O)C(F)(F)F)Nc1ccc(-c2ccccc2)cc1	11.5

Value sought for every listed compound: growth.
1. CCOC(=O)C1=C(C)NC(C)=C(C(=O)OC(C)C)C1c1cccc(C#N)c1 (centres undefined)
2. COc1cccc2c1C=CC1(O2)Oc2cccc(OC)c2C=C1C (centres undefined)
3. COc1ccc(/C(=N\NC(N)=S)c2ccc(Cl)cc2)cc1OC

Found:
1: 95.1; 2: 45.7; 3: 18.1
